Just for reference, paper PMC12523282 is where these values come from.

Would you mind telling me the reported Inhibation of each entry?
# measured_target: α-glucosidase (Saccharomyces cerevisiae, UniProt P53341)
# Construct: the yeast form of α-glucosidase, which was extracted from Saccharomyces cerevisiae; purchased Sigma-Aldrich; host or cells: Saccharomyces cerevisiae (extracted)
# Sequence (P53341 whole entry): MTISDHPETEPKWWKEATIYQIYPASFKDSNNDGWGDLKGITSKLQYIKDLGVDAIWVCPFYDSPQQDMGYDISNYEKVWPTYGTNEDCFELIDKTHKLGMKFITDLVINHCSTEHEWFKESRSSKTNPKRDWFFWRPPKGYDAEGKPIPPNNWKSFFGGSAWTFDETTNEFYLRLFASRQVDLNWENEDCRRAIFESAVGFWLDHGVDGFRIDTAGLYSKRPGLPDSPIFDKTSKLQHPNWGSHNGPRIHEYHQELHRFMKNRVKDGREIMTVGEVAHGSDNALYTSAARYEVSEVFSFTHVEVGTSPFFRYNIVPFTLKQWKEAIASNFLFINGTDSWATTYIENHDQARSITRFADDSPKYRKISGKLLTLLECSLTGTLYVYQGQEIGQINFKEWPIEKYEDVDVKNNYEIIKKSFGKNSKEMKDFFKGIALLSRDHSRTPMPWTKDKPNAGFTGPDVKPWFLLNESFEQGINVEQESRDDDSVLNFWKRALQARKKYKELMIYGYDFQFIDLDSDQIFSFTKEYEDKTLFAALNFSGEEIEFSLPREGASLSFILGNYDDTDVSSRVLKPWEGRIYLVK
# experiment_description: Anti-α-glucosidase assay (p-nitrophenyl-α-D-glucopyranoside substrate, absorbance 405 nm)
# Type: biochemical
# test_context: Conc. 90 (unit not given); IC50 determination curve
# print the numeric value only

Inhibation for O=C(Cn1cc(COc2ccc(/C=N/Nc3nnc(-c4ccccc4)c(-c4ccccc4)n3)cc2)nn1)Nc1ccc(Br)cc1 [Compound 13k] ? 65

Inhibation for Cc1ccccc1NC(=O)Cn1cc(COc2ccc(/C=N/Nc3nnc(-c4ccccc4)c(-c4ccccc4)n3)cc2)nn1 [Compound 13b] ? 93

Inhibation for Cc1ccc(NC(=O)Cn2cc(COc3ccc(/C=N/Nc4nnc(-c5ccccc5)c(-c5ccccc5)n4)cc3)nn2)c(C)c1 [Compound 13d] ? 72

Inhibation for O=C(Cn1cc(COc2ccc(/C=N/Nc3nnc(-c4ccccc4)c(-c4ccccc4)n3)cc2)nn1)NCc1ccccc1 [Compound 13m] ? 88.3

Inhibation for O=C(Cn1cc(COc2ccc(/C=N/Nc3nnc(-c4ccccc4)c(-c4ccccc4)n3)cc2)nn1)Nc1ccccc1 [Compound 13a] ? 93

Inhibation for COc1ccc(NC(=O)Cn2cc(COc3ccc(/C=N/Nc4nnc(-c5ccccc5)c(-c5ccccc5)n4)cc3)nn2)cc1 [Compound 13f] ? 98

Inhibation for O=C(Cn1cc(COc2ccc(/C=N/Nc3nnc(-c4ccccc4)c(-c4ccccc4)n3)cc2)nn1)Nc1ccccc1F [Compound 13g] ? 78

Inhibation for Cc1cccc(NC(=O)Cn2cc(COc3ccc(/C=N/Nc4nnc(-c5ccccc5)c(-c5ccccc5)n4)cc3)nn2)c1 [Compound 13c] ? 96

Inhibation for O=C(Cn1cc(COc2ccc(/C=N/Nc3nnc(-c4ccccc4)c(-c4ccccc4)n3)cc2)nn1)Nc1cccc(Cl)c1 [Compound 13i] ? 98

Inhibation for O=C(Cn1cc(COc2ccc(/C=N/Nc3nnc(-c4ccccc4)c(-c4ccccc4)n3)cc2)nn1)NCCc1ccccc1 [Compound 13n] ? 93

====

Would you mind telling me the reported Inhibation of each entry?
# measured_target: α-glucosidase (Saccharomyces cerevisiae, UniProt P53341)
# Construct: the yeast form of α-glucosidase, which was extracted from Saccharomyces cerevisiae; purchased Sigma-Aldrich; host or cells: Saccharomyces cerevisiae (extracted)
# experiment_description: Anti-α-glucosidase assay (p-nitrophenyl-α-D-glucopyranoside substrate, absorbance 405 nm)
# Format: biochemical
# test_context: Conc. 120 (unit not given); IC50 determination curve
# Description: After this time, the p-nitrophenyl-α-D-glucopyranoside (25 μL, 4 mM) was added to the latter plate and allowed to incubate at 37 °C for 20 min. […] The percentage of inhibition (% inhibition) for each sample was calculated using the formula “[(Abs control − Abs sample)/Abs control] × 100”, and IC50 values were obtained from non-linear regression curve using the Logit method.[24]
# print the numeric value only

Inhibation for O=C(Cn1cc(COc2ccc(/C=N/Nc3nnc(-c4ccccc4)c(-c4ccccc4)n3)cc2)nn1)NCc1ccccc1 [Compound 13m] ? 89

Inhibation for O=C(Cn1cc(COc2ccc(/C=N/Nc3nnc(-c4ccccc4)c(-c4ccccc4)n3)cc2)nn1)Nc1ccccc1[N+](=O)[O-] [Compound 13l] ? 67

Inhibation for Cc1cccc(NC(=O)Cn2cc(COc3ccc(/C=N/Nc4nnc(-c5ccccc5)c(-c5ccccc5)n4)cc3)nn2)c1 [Compound 13c] ? 97

Inhibation for O=C(Cn1cc(COc2ccc(/C=N/Nc3nnc(-c4ccccc4)c(-c4ccccc4)n3)cc2)nn1)NCCc1ccccc1 [Compound 13n] ? 98

Inhibation for O=C(Cn1cc(COc2ccc(/C=N/Nc3nnc(-c4ccccc4)c(-c4ccccc4)n3)cc2)nn1)Nc1ccccc1 [Compound 13a] ? 94

Inhibation for O=C(Cn1cc(COc2ccc(/C=N/Nc3nnc(-c4ccccc4)c(-c4ccccc4)n3)cc2)nn1)Nc1ccc(Br)cc1 [Compound 13k] ? 67

Inhibation for Cc1ccc(NC(=O)Cn2cc(COc3ccc(/C=N/Nc4nnc(-c5ccccc5)c(-c5ccccc5)n4)cc3)nn2)c(C)c1 [Compound 13d] ? 74
